experiment: Inhibition of amplification of synthetic HTG21 telomere assessed as G-quadruplex stabilization by PCR
pIC50: −log10 of the molar value.
assayReadout: pIC50

CCN(CC)CCNc1c2ccccc2[n+](C)c2c1[nH]c1ccccc12 : 4.92

a = CCN(CC)CCNc1c2ccccc2[n+](C)c2c1oc1ccccc12
b = CCN(CC)CCCNc1c2ccccc2[n+](C)c2c1[nH]c1ccccc12
## Task Hey, which is lower on measured pIC50, a or b ? // respond with label for picked entry
## Result a

###

assay: Inhibition of amplification of synthetic HTG21 telomere assessed as G-quadruplex stabilization by PCR
pIC50: −log10 of the molar value.
assayReadout: pIC50

CN(C)CCCNc1c2ccccc2[n+](C)c2c1[nH]c1ccccc12 : 5.35

P = C[n+]1c2ccccc2c(NCCCN2CCOCC2)c2oc3ccccc3c21
Q = CCN(CC)CCCNc1c2ccccc2[n+](C)c2c1[nH]c1c(F)cc(F)cc12
R = CN(C)CCNc1c2ccccc2[n+](C)c2c1oc1ccccc12
## Task Sort by pIC50, descending. Answer with the labels in sequence, matching the requested order.
## Result Q, R, P
(Q: 5.26, R: 4.94, P: 4.74)

1 = CN(C)CCCNc1c2ccccc2[n+](C)c2c1oc1ccccc12
2 = CCN(CC)CCNc1c2ccccc2[n+](C)c2c1[nH]c1ccc(F)cc12
## Task Given the listed items, does 1 or 2 have the lesser reported pIC50? Refer to your chosen entry by its label in the reply.
## Result 2
(2: 4.74, 1: 5.21)

###

experiment: Binding affinity to synthetic HTG21 telomere assessed as change in G-qudraplex DNA melting temperature at 1 uM by FRET method
assayReadout: ΔTm (°C)

Worked examples, 10 compounds total:
CN(C)CCNc1c2ccccc2[n+](C)c2c1[nH]c1ccc(F)cc12 : 14
C[n+]1c2ccccc2c(NCCO)c2[nH]c3ccccc3c21 : 5
CCN(CC)CCCNc1c2ccccc2[n+](C)c2c1oc1ccccc12 : 15
CCN(CC)CCNc1c2ccccc2[n+](C)c2c1[nH]c1ccc(F)cc12 : 12
C[n+]1c2ccccc2c(NCCCN2CCOCC2)c2[nH]c3ccccc3c21 : 12
CN(C)CCNc1c2ccccc2[n+](C)c2c1[nH]c1ccccc12 : 13
CCN(CC)CCCNc1c2ccccc2[n+](C)c2c1[nH]c1ccccc12 : 19
CN(C)CCCNc1c2ccccc2[n+](C)c2c1oc1ccccc12 : 14
C[n+]1c2ccccc2c(NCCN2CCOCC2)c2oc3ccccc3c21 : 9
C[n+]1c2ccccc2c(NCCN2CCOCC2)c2[nH]c3ccccc3c21 : 10

1 = CCN(CC)CCNc1c2ccccc2[n+](C)c2c1[nH]c1c(F)cc(F)cc12
2 = CN(C)CCCNc1c2ccccc2[n+](C)c2c1[nH]c1ccccc12
3 = C[n+]1c2ccccc2c(NCCCO)c2[nH]c3ccccc3c21
4 = C[n+]1c2ccccc2c(NCCO)c2oc3ccccc3c21
## Task List items by ΔTm in falling order. The reply should contain the labels ordered as requested.
## Result 2, 1, 3, 4
(2: 17 °C, 1: 11 °C, 3: 7 °C, 4: 4 °C)

a = CN(C)CCNc1c2ccccc2[n+](C)c2c1oc1ccccc12
b = CCN(CC)CCCNc1c2ccccc2[n+](C)c2c1[nH]c1ccc(F)cc12
## Task Identify the entry with the larger ΔTm. Options: a and b Reply with the label of the item you choose.
## Result b
(b: 18 °C, a: 11 °C)

###

test: Inhibition of amplification of synthetic HTG21 telomere assessed as G-quadruplex stabilization by PCR
assayReadout: IC50 (µM)

CN(C)CCNc1c2ccccc2[n+](C)c2c1[nH]c1ccccc12 : 10.3
CN(C)CCCNc1c2ccccc2[n+](C)c2c1[nH]c1c(F)cc(F)cc12 : 9
CCN(CC)CCNc1c2ccccc2[n+](C)c2c1[nH]c1c(F)cc(F)cc12 : 15
CCN(CC)CCCNc1c2ccccc2[n+](C)c2c1oc1ccccc12 : 5.7

A = CCN(CC)CCCNc1c2ccccc2[n+](C)c2c1[nH]c1ccc(F)cc12
B = CN(C)CCCNc1c2ccccc2[n+](C)c2c1[nH]c1ccc(F)cc12
## Task Param metric = IC50; output whichever of A , B has the minimum value. // respond with label for picked entry
## Result A

###

biological target: Telomerase reverse transcriptase (Homo sapiens); assay: Inhibition of telomerase in human MCF7 cells by cell-free telomerase repeat amplification protocol assay
Sequence (O14746 whole entry): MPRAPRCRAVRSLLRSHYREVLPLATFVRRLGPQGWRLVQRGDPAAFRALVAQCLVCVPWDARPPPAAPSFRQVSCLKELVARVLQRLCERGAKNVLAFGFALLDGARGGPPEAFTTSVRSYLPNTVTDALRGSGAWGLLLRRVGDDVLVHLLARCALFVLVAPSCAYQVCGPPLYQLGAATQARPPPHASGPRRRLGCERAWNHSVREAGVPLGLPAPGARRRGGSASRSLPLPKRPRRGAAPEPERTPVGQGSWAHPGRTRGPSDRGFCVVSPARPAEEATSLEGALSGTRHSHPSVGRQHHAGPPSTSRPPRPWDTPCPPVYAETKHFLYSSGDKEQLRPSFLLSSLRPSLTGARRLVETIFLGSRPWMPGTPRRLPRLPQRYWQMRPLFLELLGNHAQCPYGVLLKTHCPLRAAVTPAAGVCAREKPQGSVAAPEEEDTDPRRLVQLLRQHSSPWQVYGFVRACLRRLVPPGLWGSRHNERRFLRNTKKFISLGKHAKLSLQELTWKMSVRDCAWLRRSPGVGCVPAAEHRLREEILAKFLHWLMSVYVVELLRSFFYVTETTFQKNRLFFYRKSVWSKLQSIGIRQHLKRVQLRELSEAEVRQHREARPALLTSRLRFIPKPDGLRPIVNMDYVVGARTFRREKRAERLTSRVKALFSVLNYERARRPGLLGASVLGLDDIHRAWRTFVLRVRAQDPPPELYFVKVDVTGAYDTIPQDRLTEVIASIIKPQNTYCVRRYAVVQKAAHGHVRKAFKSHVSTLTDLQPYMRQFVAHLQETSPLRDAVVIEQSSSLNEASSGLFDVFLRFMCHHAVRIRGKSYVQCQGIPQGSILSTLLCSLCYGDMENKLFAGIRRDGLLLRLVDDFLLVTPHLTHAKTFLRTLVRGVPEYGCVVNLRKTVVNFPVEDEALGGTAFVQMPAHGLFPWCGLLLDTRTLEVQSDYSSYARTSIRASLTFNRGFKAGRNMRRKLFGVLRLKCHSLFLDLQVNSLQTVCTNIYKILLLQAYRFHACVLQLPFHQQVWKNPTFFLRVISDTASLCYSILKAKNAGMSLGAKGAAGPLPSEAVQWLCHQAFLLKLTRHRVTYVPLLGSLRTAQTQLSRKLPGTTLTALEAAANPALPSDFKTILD
pIC50: −log10 of the molar value.
assayReadout: pIC50

Below are worked cases with known answers.
CCN(CC)CCCNc1c2ccccc2[n+](C)c2c1[nH]c1ccc(F)cc12 : 6.70
CN(C)CCCNc1c2ccccc2[n+](C)c2c1[nH]c1ccc(F)cc12 : 6.51
CN(C)CCCNc1c2ccccc2[n+](C)c2c1[nH]c1c(F)cc(F)cc12 : 6.40

P = CCN(CC)CCCNc1c2ccccc2[n+](C)c2c1[nH]c1c(F)cc(F)cc12
Q = CCN(CC)CCCNc1c2ccccc2[n+](C)c2c1[nH]c1ccccc12
## Task Param pair: P , Q . Output: the one whose pIC50 is numerically greater. Label of pick, please.
## Result Q

###

assay: Inhibition of amplification of synthetic HTG21 telomere assessed as G-quadruplex stabilization by PCR
assayReadout: IC50

C[n+]1c2ccccc2c(NCCO)c2[nH]c3ccccc3c21 : > 20 µM
CN(C)CCCNc1c2ccccc2nc2c1[nH]c1ccccc12 : > 20 µM
C[n+]1c2ccccc2c(NCCN2CCOCC2)c2oc3ccccc3c21 : > 20 µM
CN(C)CCNc1c2ccccc2[n+](C)c2c1[nH]c1ccc(F)cc12 : 13 µM

## Task Item C[n+]1c2ccccc2c(NCCN2CCOCC2)c2[nH]c3ccccc3c21 : provide IC50
## Result > 20 µM

###

test: Binding affinity to synthetic HTG21 telomere assessed as change in G-qudraplex DNA melting temperature at 1 uM by FRET method
assayReadout: ΔTm (°C)

CN(C)CCCNc1c2ccccc2[n+](C)c2c1[nH]c1ccc(F)cc12 : 14
C[n+]1c2ccccc2c(NCCCO)c2oc3ccccc3c21 : 10
CCN(CC)CCCNc1c2ccccc2[n+](C)c2c1[nH]c1c(F)cc(F)cc12 : 15
CCN(CC)CCNc1c2ccccc2[n+](C)c2c1[nH]c1ccccc12 : 12
CN(C)CCCNc1c2ccccc2[n+](C)c2c1[nH]c1c(F)cc(F)cc12 : 15
CCN(CC)CCNc1c2ccccc2[n+](C)c2c1oc1ccccc12 : 12
C[n+]1c2ccccc2c(NCCCN2CCOCC2)c2oc3ccccc3c21 : 13
CN(C)CCNc1c2ccccc2[n+](C)c2c1[nH]c1c(F)cc(F)cc12 : 11
CN(C)CCCNc1c2ccccc2nc2c1[nH]c1ccccc12 : 9

###

target: Telomerase reverse transcriptase (Homo sapiens); experiment: Inhibition of telomerase in human MCF7 cells by cell-free telomerase repeat amplification protocol assay
assayReadout: IC50 (nM)

CN(C)CCCNc1c2ccccc2nc2c1[nH]c1ccccc12 : 630

a = CN(C)CCCNc1c2ccccc2[n+](C)c2c1oc1ccccc12
b = CN(C)CCCNc1c2ccccc2[n+](C)c2c1[nH]c1ccccc12
## Task Between item a and item b , which reported IC50 is smaller? Kindly state the label of the option you pick.
## Result b
(b: 220 nM, a: 370 nM)
